# EXPERIMENT_SUMMARY: Apparent permeability across apical to basolateral side in human Caco2 cells at 10 uM measured after 10 mins by LC-MS/MS analysis
# ASSAY_SETUP: Caco-2
So I've got a bunch of molecules here, and I need their Papp A→B at 10 min, 10 µM values.
Lab book: enter the figure in ×10⁻⁶ cm/s, no units written.

(Q) Which value of Papp A→B at 10 min, 10 µM has been reported for CCN1CCN(CCCn2cnc3c(N4CCN(CC)CC4)ncnc32)CC1 in the records?
(A) 3.57

(Q) GET /values?readout=Papp A→B at 10 min, 10 µM&item= CCN1CCN(c2nc(NCc3ccc(CN(C)C)cc3)nc3c2ncn3CCCN2CCCC2)CC1
(A) 92.2

(Q) Look up Papp A→B at 10 min, 10 µM for this molecule: Fc1ccc(CNc2nc(N3CCN(C4CCCC4)CC3)c3ncn(CCCN4CCCC4)c3n2)cc1
(A) 32.7
